assayed.system: human kallikrein 7 (Homo sapiens, UniProt P49862)
Sequence (P49862 30-253): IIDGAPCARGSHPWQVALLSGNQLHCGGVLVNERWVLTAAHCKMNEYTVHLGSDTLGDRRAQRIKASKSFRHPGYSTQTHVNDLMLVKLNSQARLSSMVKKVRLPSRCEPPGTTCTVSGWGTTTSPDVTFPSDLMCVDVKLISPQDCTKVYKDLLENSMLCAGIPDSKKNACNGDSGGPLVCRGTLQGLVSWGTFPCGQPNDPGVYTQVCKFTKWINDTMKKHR
assay.method.text: Kallikrein-7 inhibitory activity in vitro (fluorescence-quenched substrate)
Format: biochemical
condition.context: Table 11; read-out: hKallikrein7 IC 50
pIC50: −log10 of the molar value. Where a SMILES comes first, the peptide text is derived from it. Bridges are numbered along the chain shown (N, C = ends). [ ]: non-standard residue; d: D form. The star is where a group is joined. NMeY = CN[C@@H](Cc1ccc(O)cc1)C(=O)O; Isovaleryl = CC(C)CC(=O)*
metric.name: pIC50

Solved entries (count: 3):
compound	reported.value
C#CCOc1ccc(CC2C(=O)NC(C(C)CC)C(=O)OC(C)C(NC(=O)C(CCC(N)=O)NC(=O)C(C)C)C(=O)NC(CC(C)C)C(=O)NC3CCC(OCCC)N(C3=O)C(C(C)CC)C(=O)N2C)cc1 (centres unmarked) [example 41]	8.70
CC(C)CC(=O)N[C@@H](CCC(N)=O)C(=O)N[C@@H]1C(=O)N[C@@H](CC(C)C)C(=O)N2CCC[C@@H]2C(=O)N[C@@H](Cc2ccccc2)C(=O)N(C)[C@@H](Cc2ccc(O)cc2)C(=O)N[C@@H](C(C)C)C(=O)O[C@@H]1C [formula IX] (Isovaleryl-QTL[dP]F[NMeY]V; ester 2-C)	9.00
CCCOC1CCC2NC(=O)C(CC(C)C)NC(=O)C(NC(=O)C(CCC(N)=O)NC(=O)C(C)C)C(C)OC(=O)C(C(C)CC)NC(=O)C(Cc3ccc(OC)cc3)N(C)C(=O)C(C(C)CC)N1C2=O (centres unmarked) [example 37]	8.35

[P] CCC(C)C1NC(=O)C(Cc2ccc(O)cc2)N(C)C(=O)C(C(C)CC)N2CCCC(NC(=O)C(CC(C)C)NC(=O)C(NC(=O)C(CCC(N)=O)NC(=O)C(C)C)C(C)OC1=O)C2=O (centres unmarked) [example 4]
[Q] CCC(C)C1NC(=O)C(Cc2ccc(OC(=O)OCCOC)cc2)N(C)C(=O)C(C(C)CC)N2CCCC(NC(=O)C(CC(C)C)NC(=O)C(NC(=O)C(CCC(N)=O)NC(=O)C(C)C)C(C)OC1=O)C2=O (centres unmarked) [example 28]
# return whichever of P and Q has the smaller pIC50 Kindly state the label of the option you pick.
P

###

assayed.system: Human neutrophil elastase (Homo sapiens, UniProt P08246)
Construct: purchased Elastin Products Company, Inc. (EPC, Owensville, USA) SE563
Sequence (P08246 30-267): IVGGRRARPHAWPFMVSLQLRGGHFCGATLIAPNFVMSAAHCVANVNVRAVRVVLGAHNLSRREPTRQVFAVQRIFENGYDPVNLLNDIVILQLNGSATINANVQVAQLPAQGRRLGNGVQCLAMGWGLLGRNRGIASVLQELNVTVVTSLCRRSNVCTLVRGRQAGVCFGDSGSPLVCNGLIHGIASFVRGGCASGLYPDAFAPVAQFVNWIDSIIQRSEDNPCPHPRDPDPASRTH
assay.method.text: HNE inhibitory activity in vitro (fluorescence-quenched substrate)
Format: biochemical
*1 amine or outer side, *2 acyl side, *3 side chain or, on linkers, in order; H or OH if unused. Where a SMILES comes first, the peptide text is derived from it. Bridges are numbered along the chain shown (N, C = ends). [ ]: non-standard residue; d: D form. The star is where a group is joined. ξ: configuration not given here. X1 = O=C([C@@H]1CC[C@H](O)N1[*:1])[*:2]; NMeY = CN[C@@H](Cc1ccc(O)cc1)C(=O)O; Ile(3ξ) = CCC(C)[C@H](N)C(=O)O; Isobutyryl = CC(C)C(=O)*
In this section we review reported IC50 values for a set of compounds.
Write down the numeric answer in nM and omit the unit.

compound	IC50 [nM]
CCC(C)C1NC(=O)C(Cc2ccc(O)cc2)N(C)C(=O)C(C(C)CC)N2C(=O)C(CCC2OC)NC(=O)C(CC(C)C)NC(=O)C(NC(=O)C(CCC(N)=O)NC(=O)C(C)C)C(C)OC1=O (centres unmarked)	7.5
CCC(C)[C@@H]1NC(=O)[C@H](Cc2ccc(O)cc2)N(C)C(=O)[C@H](C(C)CC)N2C(=O)C(CC[C@@H]2O)NC(=O)[C@H](CC(C)C)NC(=O)[C@@H](NC(=O)[C@H](CCC(N)=O)NC(=O)C(C)C)[C@@H](C)OC1=O (some centres unmarked)	10
CCCCOC1CCC2NC(=O)C(CC(C)C)NC(=O)C(NC(=O)C(CCC(N)=O)NC(=O)C(C)C)C(C)OC(=O)C(C(C)CC)NC(=O)C(Cc3ccc(O)cc3)N(C)C(=O)C(C(C)CC)N1C2=O (centres unmarked)	12
CCC(C)[C@@H]1NC(=O)[C@H](Cc2ccc(O)cc2)N(C)C(=O)[C@H](C(C)CC)NC(=O)[C@@H]2CC[C@H](O)N2C(=O)[C@H](CC(C)C)NC(=O)[C@@H](NC(=O)[C@H](CCC(N)=O)NC(=O)C(C)C)[C@@H](C)OC1=O (some centres unmarked) [example 46] (Isobutyryl-QTL[X1][Ile(3ξ)][NMeY][Ile(3ξ)]; ester 2-C)	100
CCCCCCCCOC1CCC2NC(=O)C(CC(C)C)NC(=O)C(NC(=O)C(CCC(N)=O)NC(=O)C(C)C)C(C)OC(=O)C(C(C)CC)NC(=O)C(Cc3ccc(O)cc3)N(C)C(=O)C(C(C)CC)N1C2=O (centres unmarked)	55
CCC(C)[C@@H]1NC(=O)[C@H](Cc2ccc(O)cc2)N(C)C(=O)[C@@H](C(C)CC)N2C=CC[C@H](NC(=O)[C@H](CC(C)C)NC(=O)[C@@H](NC(=O)[C@H](CCC(N)=O)NC(=O)C(C)C)[C@@H](C)OC1=O)C2=O (some centres unmarked)	60
CCC(C)[C@@H]1NC(=O)[C@H](Cc2ccc(O)cc2)N(C)C(=O)[C@H](C(C)CC)N2C(=O)C(CC[C@@H]2O)NC(=O)[C@H](CC(C)C)NC(=O)[C@@H](NC(=O)[C@H](CCC(=O)O)NC(=O)C(C)C)[C@@H](C)OC1=O (some centres unmarked)	10

Could you now consider this next compound?
Tested on Human neutrophil elastase (Homo sapiens, UniProt P08246), the item CCC(C)C1NC(=O)C(Cc2ccc(O)cc2)N(C)C(=O)C(C(C)CC)N2C(=O)C(CCC2OCCOCCO)NC(=O)C(CC(C)C)NC(=O)C(NC(=O)C(CCC(N)=O)NC(=O)C(C)C)C(C)OC1=O (centres unmarked) showed IC50 equal to 5
